target: human bradykinin B2 receptor (hB2R) (Homo sapiens, UniProt P30411); experiment: cell-based human bradykinin B2 receptor calcium mobilization (hB2R-CaM) assay; details: HTS041C cells, bradykinin at EC80, calcium mobilization; read-out: IC50-value towards human bradykinin B2 receptor (hB2R)
Sequence (P30411 whole entry): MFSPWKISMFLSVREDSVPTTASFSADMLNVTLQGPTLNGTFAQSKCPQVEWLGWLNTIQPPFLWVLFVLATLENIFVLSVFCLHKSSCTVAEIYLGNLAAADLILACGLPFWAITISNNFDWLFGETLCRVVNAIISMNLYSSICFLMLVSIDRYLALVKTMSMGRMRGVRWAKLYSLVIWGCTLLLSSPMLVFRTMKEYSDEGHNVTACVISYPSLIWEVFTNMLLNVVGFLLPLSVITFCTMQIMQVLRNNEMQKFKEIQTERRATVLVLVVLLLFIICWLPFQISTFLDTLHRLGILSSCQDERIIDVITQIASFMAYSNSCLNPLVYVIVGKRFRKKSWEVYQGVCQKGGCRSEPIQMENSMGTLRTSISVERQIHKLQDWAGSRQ
# IC50 per record follows

Recorded IC50, per entry:
> print(dat)
                                   compound   assay.value
1  CC[C@H](O)C(=O)N[C@@H](C)c1cc(F)cc(Cl)c1COc1cccc2c(-n3nccn3)cc(C)nc12  51 to 250 nM
2  Cc1cc(-c2ncnn2C)c2cccc(OCc3c(Cl)cc(F)cc3[C@H](C)NC(=O)CC(F)(F)F)c2n1       ≤ 50 nM
3  CO[C@@H](C)C(=O)N[C@@H](C)c1cc(F)cc(Cl)c1COc1cccc2c(-n3cc(F)cn3)cc(C)nc12       ≤ 50 nM
4  [2H][C@@](C)(NC(=O)C(F)F)c1cc(F)cc(Cl)c1COc1cccc2c(-c3ncnn3C)cc(C)nc12       ≤ 50 nM
5  CCn1ncnc1-c1cc(C)nc2c(OCc3c(Cl)cc(F)cc3[C@H](C)NC(=O)COC(F)F)cccc12       ≤ 50 nM

Ask: # IC50 lookup, item Cc1cc(-n2ncnc2C)c2cccc(OCc3c(Cl)cc(F)cc3[C@H](C)NC(=O)C(C)F)c2n1 (stereo partly drawn)
Reply: ≤ 50 nM

Ask: # IC50 lookup, item CC[C@H](NC(=O)c1coc(C)n1)c1cc(F)cc(Cl)c1COc1cccc2c(-n3cc(F)cn3)cc(C)nc12
Reply: 51 to 250 nM

Ask: # IC50 lookup, item Cc1cc(-n2cc(F)cn2)c2cccc(OCc3c(Cl)cc(F)cc3[C@H](CO)NC(=O)COC(F)F)c2n1
Reply: ≤ 50 nM

Ask: # IC50 lookup, item Cc1cc(-n2nc(C)nc2C)c2cccc(OCc3c(Cl)cc(F)cc3[C@H](C)NC(=O)c3ccon3)c2n1
Reply: 51 to 250 nM

Ask: # IC50 lookup, item Cc1cc(-c2ncnn2C)c2cccc(OCc3c(Cl)cc(F)cc3[C@H](C)NC(=O)C3CCCCC3)c2n1
Reply: ≤ 50 nM

Ask: # IC50 lookup, item Cc1cc(-n2cc(F)cn2)c2cccc(OCc3c(Cl)cc(F)cc3[C@H](C)N(C)C(=O)C(C)(C)O)c2n1
Reply: ≤ 50 nM

Ask: # IC50 lookup, item CC[C@H](NC(=O)c1cocn1)c1cc(F)cc(Cl)c1COc1cccc2c(-c3ncnn3C)cc(C)nc12
Reply: ≤ 50 nM

* * *

biological target: human bradykinin B2 receptor (hB2R) (Homo sapiens, UniProt P30411); assay: cell-based human bradykinin B2 receptor calcium mobilization (hB2R-CaM) assay; details: HTS041C cells, bradykinin at EC80, calcium mobilization; read-out: IC50-value towards human bradykinin B2 receptor (hB2R)
Attribute Measured: IC50

Recorded IC50, per entry:
> print(dat)
                                   compound                             target.entity   assay.value
1  Cc1cc(-n2nc(C)nc2C)c2cccc(OCc3c(Cl)cc(F)cc3[C@H](C)NC(=O)c3coc(C)n3)c2n1  human bradykinin B2 receptor (hB2R) (Homo sapiens, UniProt P30411)  51 to 250 nM
2  CCc1ncnn1-c1cc(C)nc2c(OCc3c(Cl)cc(F)cc3[C@H](C)NC(=O)C(C)(C)O)cccc12  human bradykinin B2 receptor (hB2R) (Homo sapiens, UniProt P30411)       ≤ 50 nM
3  CO[C@H](C)C(=O)N[C@@H](C)c1cc(F)cc(Cl)c1COc1cccc2c(-n3cc(F)cn3)cc(C)nc12  human bradykinin B2 receptor (hB2R) (Homo sapiens, UniProt P30411)       ≤ 50 nM
4  Cc1cc(-n2cc(F)cn2)c2cccc(OCc3c(Cl)cc(F)cc3[C@H](C)NC(=O)C3(C)CCCO3)c2n1 (stereo partly shown)  human bradykinin B2 receptor (hB2R) (Homo sapiens, UniProt P30411)       ≤ 50 nM
5  Cc1cc(-n2cc(F)cn2)c2cccc(OCc3c(Cl)cc(F)cc3[C@H](C)NC(=O)[C@H]3COC(C)(C)O3)c2n1  human bradykinin B2 receptor (hB2R) (Homo sapiens, UniProt P30411)  51 to 250 nM
6  Cc1cc(-c2ncc(C#N)n2C)c2cccc(OCc3c(Cl)cc(F)cc3[C@H](C)NC(=O)COC(F)F)c2n1  human bradykinin B2 receptor (hB2R) (Homo sapiens, UniProt P30411)       ≤ 50 nM
7  Cc1cc(-n2cc(F)cn2)c2cccc(OCc3c(Cl)cc(F)cc3[C@H](C)NC(=O)[C@H](C)CO)c2n1  human bradykinin B2 receptor (hB2R) (Homo sapiens, UniProt P30411)       ≤ 50 nM
8  Cc1cc(-n2cc(F)cn2)c2cccc(OCc3c(Cl)cc(F)cc3[C@H](C)NC(=O)C3CCO3)c2n1 (stereo partly shown)  human bradykinin B2 receptor (hB2R) (Homo sapiens, UniProt P30411)       ≤ 50 nM

Ask: # IC50 lookup, item Cc1cc(-c2ccnn2C)c2cccc(OCc3c(Cl)cc(F)cc3[C@H](C)NC(=O)C(C)(C)O)c2n1
Reply: ≤ 50 nM

Ask: # IC50 lookup, item CC[C@H](NC(=O)C(F)F)c1cc(F)cc(Cl)c1COc1cccc2c(-n3cc(F)cn3)cc(C)nc12
Reply: 51 to 250 nM

The measurements presented in this section are drawn from patent US11820756B2.
